target desc: STAT3 (Homo sapiens, UniProt P40763)
Construct: plasmid pSTAT3-TA-luc), which contains a stably operating STAT3 promoter; endogenous in cells
Sequence (P40763 whole entry): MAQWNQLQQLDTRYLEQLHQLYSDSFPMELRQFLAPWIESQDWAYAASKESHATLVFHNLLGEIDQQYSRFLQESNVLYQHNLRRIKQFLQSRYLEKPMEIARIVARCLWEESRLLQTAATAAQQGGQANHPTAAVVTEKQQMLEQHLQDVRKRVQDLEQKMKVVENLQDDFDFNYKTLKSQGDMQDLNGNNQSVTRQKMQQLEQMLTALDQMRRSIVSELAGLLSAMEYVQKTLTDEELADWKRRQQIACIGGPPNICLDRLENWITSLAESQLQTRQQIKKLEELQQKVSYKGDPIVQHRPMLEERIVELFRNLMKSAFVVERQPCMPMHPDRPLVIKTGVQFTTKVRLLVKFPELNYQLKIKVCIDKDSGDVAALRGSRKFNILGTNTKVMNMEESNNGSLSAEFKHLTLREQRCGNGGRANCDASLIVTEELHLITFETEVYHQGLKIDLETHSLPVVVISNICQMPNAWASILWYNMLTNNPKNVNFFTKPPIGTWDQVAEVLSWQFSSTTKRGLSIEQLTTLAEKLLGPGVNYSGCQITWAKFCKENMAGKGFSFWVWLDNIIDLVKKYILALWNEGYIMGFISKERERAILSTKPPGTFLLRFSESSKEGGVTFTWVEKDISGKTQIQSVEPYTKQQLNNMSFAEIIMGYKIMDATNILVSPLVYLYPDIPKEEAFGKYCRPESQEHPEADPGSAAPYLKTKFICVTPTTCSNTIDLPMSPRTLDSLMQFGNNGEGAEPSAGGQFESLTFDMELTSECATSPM
test summary: STAT3 reporter gene assay (luciferase), LNCaP stable cell line (pSTAT3-TA-luc), IL-6 stimulation
Type: cell-based
readout name: IC50 (µM)
Field: numeric (µM). Do not append units.

Worked examples, 4 molecules total:
molecule smiles	IC50 / µM
CS(=O)(=O)Nc1ccc2cc(C(=O)Nc3cccc(C(F)(F)c4ccccc4)c3)[nH]c2c1	2.4
CN(c1ccc2cc(C(=O)Nc3cccc(-c4ccc(F)cc4F)c3)[nH]c2c1)S(C)(=O)=O	0.15
CS(=O)(=O)Nc1ccc2sc(C(=O)Nc3cc(Cl)cc(Oc4cccc(C#N)c4)c3)cc2c1	0.36
CS(=O)(=O)Nc1ccc2sc(C(=O)Nc3cc(Cl)cc(Oc4ccc(F)cc4)c3)cc2c1	0.096

Tell me reported IC50 for CS(=O)(=O)Nc1cc2cc(C(=O)Nc3cc(Cl)cc(C4(c5ccc(Cl)cc5)CC4)c3)sc2cc1Cl , tested with STAT3 (Homo sapiens, UniProt P40763).
0.013

Please give the result for CS(=O)(=O)Nc1ccc2sc(C(=O)Nc3cc(Cl)cc(Oc4ccc(F)c(OC(F)(F)F)c4)c3)cc2c1 too.
0.32

Same question, COc1ccc(OC)c(C(C)(C)c2cc(Cl)cc(NC(=O)c3cc4cc(NS(C)(=O)=O)ccc4s3)c2)c1 this time
0.23

----------
Measured IC50, listed per entry.
target desc: STAT3 (Homo sapiens)
Construct: plasmid pSTAT3-TA-luc), which contains a stably operating STAT3 promoter; endogenous in cells
test summary: STAT3 reporter gene assay (luciferase), LNCaP stable cell line (pSTAT3-TA-luc), IL-6 stimulation
Assay type: cell-based
Please respond with the number in µM and leave the unit unwritten.

In the examples that follow, each entry is paired with its recorded IC50.
compound	IC50 / µM
CC(C)Oc1cc(OC(F)(F)F)cc(C(C)(C)c2cc(Cl)cc(NC(=O)c3cc4cc(NS(C)(=O)=O)cnc4s3)c2)c1 [Example 69]	0.052
CN(C)CCOc1cc(OC(F)(F)F)cc(C(C)(C)c2cc(Cl)cc(NC(=O)c3cc4cc(NS(C)(=O)=O)ccc4s3)c2)c1 [Example 94]	1.12
CS(=O)(=O)Nc1ccc2sc(C(=O)Nc3cc(Cl)cc(Oc4cccc(Cl)c4)c3)cc2c1 [Example 456]	0.19
CS(=O)(=O)Nc1cc2cc(C(=O)Nc3cc(Cl)cc(Oc4cc(F)cc(Cl)c4)c3)sc2cc1Cl [Example 483]	0.014
COc1cc2sc(C(=O)Nc3cc(Cl)cc(C(C)(C)c4ccc(Cl)cc4)c3)cc2cc1NS(C)(=O)=O [Example 497]	0.005

Requested field: IC50. Item: CC(C)(C)OC(=O)N1CCN(Cc2cccc(C(C)(C)c3cc(Br)cc(NC(=O)c4cc5ccc(NS(C)(=O)=O)cc5[nH]4)c3)c2)CC1 [Example 117]
0.23

Same for O=C(Nc1cccc(-c2ccc(F)cc2F)c1)c1cc2ccc(NS(=O)(=O)CC(F)(F)F)cc2[nH]1 [Example 273]
2.2

Same read-out for Cn1c(C(=O)Nc2cccc(-c3ccc(F)cc3F)c2)cc2ccc(NS(C)(=O)=O)cc21 [Example 248] ?
6.1

Input O=C(Nc1cccc(-c2ccc(F)cc2F)c1)C1Cc2ccc([N+](=O)[O-])cc2N1 (stereo not drawn) [Example 231]
2.9

// query: CC(C)Oc1cc(N2CCN(C)CC2)cc(C(C)(C)c2cc(Cl)cc(NC(=O)c3cc4cc(NS(C)(=O)=O)ccc4s3)c2)c1 [Example 147]
0.67

Would you mind doing CN1CCN(Cc2cccc(C(C)(C)c3cc(Br)cc(NC(=O)c4cc5cc(NS(C)(=O)=O)ccc5s4)c3)c2)CC1 [Example 115] as well?
2.5

----------
target desc: STAT3 (Homo sapiens)
Construct: plasmid pSTAT3-TA-luc), which contains a stably operating STAT3 promoter; endogenous in cells
test summary: STAT3 reporter gene assay (luciferase), LNCaP stable cell line (pSTAT3-TA-luc), IL-6 stimulation
Type: cell-based
readout name: IC50 (µM)
Entry rule: numbers only, all in µM.

molecule smiles	IC50 (µM)
CS(=O)(=O)Nc1ccc2sc(C(=O)Nc3cc(Cl)cc(Oc4ccc(F)c(Cl)c4)c3)cc2c1	0.14
COc1ccc(Oc2cc(Cl)cc(NC(=O)c3cc4cc(NS(C)(=O)=O)ccc4s3)c2)cc1	0.27
CC(C)(c1cc(Cl)cc(NC(=O)c2cc3cc(NS(C)(=O)=O)ccc3s2)c1)c1cc(OCC(F)F)cc(OC(F)(F)F)c1	0.023

# next compound below
# get_value(readout= IC50, system= STAT3 (Homo sapiens)) for CC(C)(c1ccc(F)cc1)c1cc(Cl)cc(NC(=O)c2cc3ccc(NS(C)(=O)=O)cc3[nH]2)c1
0.22

----------
Tested on: LNCaP
test summary: Cell growth inhibition assay, prostate cancer cell line LNCaP (medium with 10 ng/mL IL-6)
Type: cell-based
stated conditions: Homo sapiens, medium supplemented with 10 ng/mL of IL-6, 10,000 cells/well
Procedure: The inhibitory effects of the compounds of the present invention against the growth of cancer cells were evaluated as shown below. […] Subsequently, the cells were observed under microscope and drug precipitation and particular findings were investigated and recorded. […]
readout name: IC50 (µM)
Expressed in µM, but write only the number.

compound	measure unit	numeric value
CC(C)Oc1cc(-c2ccnn2C)cc(C(C)(C)c2cc(Cl)cc(NC(=O)c3cc4cc(NS(C)(=O)=O)ccc4s3)c2)c1	µM	0.33
CC(C)(c1cc(Br)cc(NC(=O)c2cc3ccc(NS(C)(=O)=O)cc3[nH]2)c1)c1cc(OC(F)(F)F)ccc1F	µM	0.17

# next compound below
Could you tell me which IC50 is on file for CC(C)Oc1cc(OC(F)(F)F)cc(C(C)(C)c2cc(Cl)cc(NC(=O)c3nc4cc(NS(C)(=O)=O)ccc4s3)c2)c1 ?
0.15

----------
Tested on: DU-145
test summary: Cell growth inhibition assay, prostate cancer cell line DU-145
Assay type: cell-based
stated conditions: Homo sapiens, DU-145 prostate cancer cell line
Below, each entry is listed alongside its reported IC50.
Give just the number in µM; leave the unit off.

Check out these entries, answers already filled in.
molecule	target desc	measure unit	IC50
CC(C)Oc1cc(OC(F)(F)F)cc(C(C)(C)c2cc(Cl)cc(NC(=O)c3cc4cc(OP(=O)(O)O)ccc4s3)c2)c1 [Example 193]	DU-145	µM	0.39
CS(=O)(=O)Nc1ccc2sc(C(=O)Nc3cc(Br)cc(S(=O)(=O)N4CCc5c(F)cc(F)cc5C4)c3)cc2c1 [Example 419]	DU-145	µM	0.65
CC(C)(c1cc(Cl)cc(NC(=O)c2cc3cc(NS(C)(=O)=O)ccc3s2)c1)c1cc(OCC#N)cc(OC(F)(F)F)c1 [Example 77]	DU-145	µM	0.05
CN(c1ccc2sc(C(=O)Nc3cc(Cl)cc(Oc4ccc(Cl)cc4)c3)cc2c1)S(C)(=O)=O [Example 220]	DU-145	µM	0.007
O=C(Nc1cc(Cl)cc(-c2ccc(F)cc2F)c1)c1cc2cc(NS(=O)(=O)C3CCOC3)c(F)cc2s1 (stereo not shown) [Example 330]	DU-145	µM	0.005

Given the molecule CS(=O)(=O)Nc1ccc2sc(C(=O)Nc3cc(Cl)cc(C4(c5ccc(Cl)cc5)CC4)c3)cc2c1 [Example 432] , what is its reported IC50?
0.06

----------
Collected IC50 values appear next to each entry.
target desc: STAT3 (Homo sapiens)
Construct: plasmid pSTAT3-TA-luc), which contains a stably operating STAT3 promoter; endogenous in cells
test summary: STAT3 reporter gene assay (luciferase), LNCaP stable cell line (pSTAT3-TA-luc), IL-6 stimulation
Format: cell-based

molecule smiles	result
CS(=O)(=O)Nc1cc2cc(C(=O)Nc3cc(Cl)cc(Oc4ccc(C(F)(F)F)cc4)c3)sc2cc1Cl	0.016 µM

Record CC(C)Oc1cc(OC(F)(F)F)cc(C(C)(C)c2cc(Cl)cc(NC(=O)c3cc4cc(N(CCN(C)C)S(C)(=O)=O)c(F)cc4s3)c2)c1 : what is its IC50 with STAT3 (Homo sapiens)?
1.19 µM

Follow-up entry: CC(C)(c1cc(Cl)cc(NC(=O)c2cc3cc(NS(C)(=O)=O)ccc3s2)c1)c1ccc(F)c(F)c1
0.069 µM

Same thing, different molecule: CS(=O)(=O)Nc1ccc2sc(C(=O)Nc3cc(Br)cc(S(=O)(=O)N4CCC(F)(F)CC4)c3)cc2c1
0.82 µM

----------
The entries below come with measured log10(IC50) values attached.
System: LNCaP
test summary: Cell growth inhibition assay, prostate cancer cell line LNCaP (medium with 10 ng/mL IL-6)
Assay type: cell-based
stated conditions: Homo sapiens, medium supplemented with 10 ng/mL of IL-6, 10,000 cells/well
For clarity, the numbers are log10 values of IC50 expressed in µM.

Below, 2 compounds whose answers are already recorded.
compound	target desc	log10(IC50)
CC(C)Oc1cc(N2CCN(C)CC2)cc(C(C)(C)c2cc(Cl)cc(NC(=O)c3cc4cc(NS(C)(=O)=O)ccc4s3)c2)c1 [Example 147]	LNCaP	-0.10
CCOc1cc(OC(F)(F)F)cc(C(C)(C)c2cc(Cl)cc(NC(=O)c3cc4ccc(NS(C)(=O)=O)cc4[nH]3)c2)c1 [Example 59]	LNCaP	-0.92

Any idea what log10(IC50) came out for COc1ccc(C(C)(C)c2cc(Cl)cc(NC(=O)c3cc4cc(NS(C)(=O)=O)ccc4s3)c2)cc1OC [Example 153] on LNCaP?
-1.00

Likewise for CC(C)Oc1cc(OC(F)(F)F)cc(C(C)(C)c2cc(Cl)cc(NC(=O)c3cc4cc(NS(C)(=O)=O)ccc4s3)c2)c1 [Example 68] ?
-1.72

# iterate: CC(C)Oc1cc(OC(F)(F)F)cc(C(C)(C)c2cc(Cl)cc(NC(=O)c3cc4cc(NS(C)(=O)=O)ccc4[s+]3[O-])c2)c1 (stereo not drawn) [Example 223]
-0.77
